Data provenance is ChEMBL document CHEMBL1795254.

# inhibition annotations
- TARGET: Adenosine receptor A1 (Homo sapiens) (UniProt P30542)
- Sequence (P30542 whole entry): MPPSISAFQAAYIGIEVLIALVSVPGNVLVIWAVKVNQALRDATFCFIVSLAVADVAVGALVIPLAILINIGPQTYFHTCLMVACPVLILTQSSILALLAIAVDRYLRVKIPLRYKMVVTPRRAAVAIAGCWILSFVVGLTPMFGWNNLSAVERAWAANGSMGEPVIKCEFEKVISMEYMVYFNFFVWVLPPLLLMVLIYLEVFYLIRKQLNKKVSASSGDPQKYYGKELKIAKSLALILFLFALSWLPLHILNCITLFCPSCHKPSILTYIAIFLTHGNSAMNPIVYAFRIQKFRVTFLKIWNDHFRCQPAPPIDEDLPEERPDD
- PROCEDURE_TEXT: Displacement of [3H]DPCPX from human recombinant adenosine A1 receptor expressed in CHO cell membranes at 1 uM by scintillation counting
MEASURED_PARAMETER: inhibition (%)

1. O=C(Nc1cccc2c1[nH]c(=O)c1nn(-c3ccccc3)cc12)OCc1ccccc1 = 3
2. O=c1[nH]c2c(OC(c3ccccc3)c3ccccc3)cccc2c2cn(-c3ccccc3)nc12 = 6
3. O=c1[nH]c2c(O)cccc2c2cn(-c3ccccc3)nc12 = 1
4. Cn1cc2c(n1)c(N)nc1ccccc12 = 20
5. Cn1cc2c(n1)c(=O)[nH]c1ccccc12 = 2
6. Nc1nc2c(OCCc3ccccc3)cccc2c2cn(-c3ccccc3)nc12 = 40
7. Nc1cccc2c1[nH]c(=O)c1nn(-c3ccccc3)cc12 = 8
8. Cn1cc2c(n1)c(=O)[nH]c1c(OCc3ccccc3)cccc12 = 2
9. O=c1[nH]c2c(OCc3ccccc3)cccc2c2cn(-c3ccccc3)nc12 = 20
10. O=c1[nH]c2c(Br)cccc2c2cn(-c3ccccc3)nc12 = 8
